Every entry's value here was drawn from PubChem BioAssay (NCATS).

target: Ubiquitin carboxyl-terminal hydrolase 1 (Homo sapiens); test: Inhibitors of USP1/UAF1: Pilot qHTS (AID 504865); conditions: purified USP1/UAF1, Ub-rhodamine cleavage fluorescence; series mostly up to 114 µM;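 also: rhodamine fluorescence freed from ubiquitin-rhodamine substrate followed over time; top concentration of the series differs between compounds; % is scaled to controls: 0 for no effect and ±100 for the full control effect; nearly all actives have a fitted effect of over 35% in size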
Results filed as inconclusive are left out. Calls of active or inactive are those of the source. Calls follow the shape of the dose curve; as a rule, active = well fitted inhibition curve with a large enough effect; inconclusive = small, poorly fitted or top-dose-only effect; inactive = flat fitted curve, though single readings scatter.
READOUT TYPE: outcome

C=CCN1CC[C@@]23c4c5ccc(O)c4O[C@H]2/C(=N\N=C2/CC[C@@]4(O)[C@H]6Cc7ccc(O)c8c7[C@@]4(CCN6CC=C)[C@@H]2O8)CC[C@]3(O)[C@@H]1C5: inactive
NC(N)=Nc1ccc2[nH]c3c(c2c1)C[C@]1(O)[C@@H]2Cc4ccc(O)c5c4[C@]1(CCN2CC1CC1)[C@@H]3O5: inactive
N[C@H](CCP(=O)(O)O)C(=O)O: inactive
CC[C@H](Oc1ccc(Cl)cc1)C(=O)OC1C[C@H]2CC[C@@H](C1)N2C (some centres undefined): inactive

====

experiment: qHTS for Inhibitors of the Functional Ribonucleoprotein Complex (vRNP) of Lassa (LASV) Arenavirus: LASV Primary Screen - GLuc reporter signal (AID 1347082); settings: LASV minigenome vRNP, Gaussia luciferase reporter; series mostly up to 57.5 µM; also: nearly all actives have a fitted effect of over 60% in size
Results filed as inconclusive are left out. The source made the active and inactive calls. Calls come from the whole dose curve; tested in HEK293 reporter line.
Select the matching outcome among active, inactive

C[C@@H]1C(=O)O[C@@H]2CC34[C@H]5C[C@@H](C(C)(C)C)C36[C@H](OC(=O)[C@@H]6O)OC4(C(=O)O5)[C@@]12O (some centres not stated): inactive
CSCCCN=C=S: inactive
O=C1NC(=O)C(=Cc2ccc(-c3ccc(F)cc3O)o2)S1: inactive
O=c1ccn([C@@H]2O[C@H](CO)[C@H](O)[C@@H]2F)c(=O)[nH]1: active
[Li+]: inactive

Identify the outcome logged in this assay for the molecule shown: COC(=O)[C@H](CCCN=C(N)N)NS(=O)(=O)c1ccc(C)cc1
inactive

Identify the outcome logged in this assay for the molecule shown: C/C=C1/CN2CC[C@]34C(=C(C=O)[C@@H]1C[C@H]23)Nc1c(O)cccc14
inactive

Identify the outcome logged in this assay for the molecule shown: C=C1C2C[C@H](O)C(C)(C)[C@@]2(O)[C@H](O)C[C@]23C[C@@](C)(O)[C@H](CC[C@H]12)[C@H]3O (some centres not stated)
inactive

====

experiment: Validation screen for inhibitors of Lassa infection (AID 463096); settings: Lassa virus infection, cell-based; series mostly up to 46.1 µM
Records with an inconclusive call do not appear. Calls of active or inactive are those of the source. Calls follow the shape of the full dose curve.
Select the matching outcome among active, inactive

Please review the entries below; each comes with its answer.
CC1CN(S(=O)(=O)c2cccc3cnccc23)CCN1 (centres undefined): inactive
O=C(c1cc(O)c(O)c([N+](=O)[O-])c1)c1ccccc1F: inactive
NC(=O)c1cc[n+](CC2=C(C(=O)O)N3C(=O)[C@@H](NC(=O)[C@@H](c4ccccc4)S(=O)(=O)[O-])[C@H]3SC2)cc1: inactive

Identify the outcome logged in this assay for the compound shown: C[C@@H]1O[C@@H](O[C@H]2C[C@@H](O)[C@]3(CO)[C@@H]4C(CC[C@]3(O)C2)[C@@]2(O)CC[C@H](C3=CC(=O)OC3)[C@@]2(C)C[C@H]4O)[C@H](O)[C@H](O)[C@H]1O (some centres undefined)
active

Identify the outcome logged in this assay for the compound shown: O=c1[nH]c2cc([N+](=O)[O-])c([N+](=O)[O-])cc2[nH]c1=O
inactive

Identify the outcome logged in this assay for the compound shown: COc1ccccc1N1CCN(CCCCN2C(=O)c3ccccc3C2=O)CC1
inactive

Identify the outcome logged in this assay for the compound shown: N=S(=O)(O)Cc1noc2ccccc12
inactive

Identify the outcome logged in this assay for the compound shown: Oc1ccc(Cn2cc[nH]c2=S)cc1
inactive

Identify the outcome logged in this assay for the compound shown: CCCn1c(=O)c2c(ncn2C)n(CCC)c1=O
inactive

====

target: Furin (Homo sapiens) (UniProt P09958); assay: Furin counterscreen qHTS for Zika virus inhibitors (AID 1347149); conditions: furin enzymatic counterscreen, fluorogenic substrate; series mostly up to 57.5 µM;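 also: purified recombinant full-length human furin enzyme at 5 nM; fluorescence gain from furin cutting a BOC-RVRR-AMC peptide substrate over 15 min; top concentration of the series differs between compounds; plate controls were no-inhibitor control for no effect and no-enzyme control for full effect; nearly all actives have a fitted effect of over 70% in size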
Sequence (P09958 whole entry, looked up): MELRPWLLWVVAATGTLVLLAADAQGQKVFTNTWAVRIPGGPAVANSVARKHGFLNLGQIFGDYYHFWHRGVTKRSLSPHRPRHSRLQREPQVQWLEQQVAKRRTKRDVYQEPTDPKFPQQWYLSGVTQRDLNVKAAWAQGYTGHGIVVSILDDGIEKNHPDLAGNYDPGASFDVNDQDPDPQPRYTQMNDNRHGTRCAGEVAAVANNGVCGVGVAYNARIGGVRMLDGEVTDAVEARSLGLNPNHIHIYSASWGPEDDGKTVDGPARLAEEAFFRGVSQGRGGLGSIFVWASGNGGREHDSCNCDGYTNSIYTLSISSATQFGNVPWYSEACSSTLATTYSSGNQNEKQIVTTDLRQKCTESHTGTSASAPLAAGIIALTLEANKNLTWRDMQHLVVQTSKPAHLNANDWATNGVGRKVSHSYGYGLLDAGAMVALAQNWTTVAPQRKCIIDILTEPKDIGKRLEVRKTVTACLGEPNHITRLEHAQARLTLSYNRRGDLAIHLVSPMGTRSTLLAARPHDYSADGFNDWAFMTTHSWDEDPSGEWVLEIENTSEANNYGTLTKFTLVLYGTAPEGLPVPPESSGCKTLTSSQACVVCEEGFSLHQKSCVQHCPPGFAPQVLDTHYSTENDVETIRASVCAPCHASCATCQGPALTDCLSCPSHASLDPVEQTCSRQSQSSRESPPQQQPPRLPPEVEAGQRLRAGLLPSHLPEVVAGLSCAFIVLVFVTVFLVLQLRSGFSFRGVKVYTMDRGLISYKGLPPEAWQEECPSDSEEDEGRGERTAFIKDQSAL
Results filed as inconclusive are left out. Calls of active or inactive are those of the source. Calls follow the shape of the dose curve; as a rule, active = well fitted inhibition curve with a large enough effect; inconclusive = small, poorly fitted or top-dose-only effect; inactive = no such curve, though single readings can be large or run the other way.
READOUT TYPE: outcome

C[C@H]1O[C@@H](O[C@H]2[C@@H](O)C[C@@H](O[C@H]3[C@@H](O)C[C@H](O[C@H]4CC[C@@]5(C)[C@H](CC[C@@H]6[C@@H]5CC[C@]5(C)[C@@H](C7=CC(=O)OC7)CC[C@]65O)C4)O[C@@H]3C)O[C@@H]2C)C[C@H](O)[C@@H]1O: inactive
COc1cc2c(cc1OCC1CCCC1)N([S+](=O)([O-])c1ccc(Oc3ccccc3)cc1)CC21CCN(CC(=O)O)CC1: inactive
CN1CC[C@@]23CCCCC2C1Cc1ccc(O)cc13 (stereo partly drawn): inactive

====

Listed molecules paired with reported activation
experiment: qHTS assay for small molecule activators of the p53 signaling pathway (AID 651743); conditions: HCT-116 p53RE-bla, beta-lactamase FRET ratio, 16 h; stronger effect = higher value; also: % of control where 0% means no effect
Results filed as inconclusive are left out.
The answer is to be given in %; state only the numeric part.

Examples with answers:
C[C@H]1O[C@H](OC2[C@@H](O)[C@@H](O)C(O)[C@H](O)[C@H]2O)[C@@H](N)C[C@@H]1N=C(N)C(=O)O (some centres undefined): 0.472
COC1=CC(=O)OC(CCc2ccc3c(c2)OCO3)C1 (centres undefined): -6.75

Can you share its activation? I mean this molecule: C[C@]12CC[C@H]3[C@@H](CCC4=CC(=O)CC[C@@]43C)[C@@H]1CC[C@H]2O
0.0688

Can you share its activation? I mean this molecule: O=Cc1ccccc1
-1.08

====

tested on: KB-3-1; assay: Cytotoxic Profiling of Annotated Libraries Using Quantitative High-Throughput Screening (AID 1296008); settings: Five cell lines viability, CellTiter-Glo ATP luminescence, 48-72 h; also: nearly all actives have a fitted effect of over 60% in size; also: potency is read from the fitted curve at half-maximal effect
Inconclusive results are not listed. Calls of active or inactive are those of the source. Calls come from the whole dose curve; as a rule, active = well fitted inhibition curve with a large enough effect; inconclusive = small, poorly fitted or top-dose-only effect; inactive = flat fitted curve, though single readings scatter.
READOUT TYPE: Potency

Examples with answers:
CC[C@H]1C[C@@H]2CC[C@@H](O2)[C@@H](C)C(=O)O[C@H](CC)C[C@H]2CC[C@H](O2)[C@H](C)C(=O)O[C@@H](C)C[C@@H]2CC[C@@H](O2)[C@@H](C)C(=O)O[C@H](CC)C[C@H]2CC[C@H](O2)[C@H](C)C(=O)O1: 15.3 nM (active)
CC[C@@]1(O)C(=O)OCc2c1cc1n(c2=O)Cc2cc3c(OC)cccc3nc2-1: 1280 nM (active)
CO/C1=C\C(C)=C\[C@@H](C)[C@@H](O)[C@@H](C)C/C(C)=C/C=C/[C@H](OC)[C@@H]([C@@H](C)[C@@H](O)[C@H](C)[C@@]2(O)C[C@@H](O)[C@H](C)[C@@H](C(C)C)O2)OC1=O: 61.1 nM (active)
C[C@]12CC[C@H](O)C[C@@H]1CC[C@@H]1[C@@H]2CC[C@]2(C)C(=O)CC[C@@H]12: inactive

Can you share its Potency? I mean this compound: CN1CCc2cc3c(cc2[C@H]1[C@@H]1OC(=O)c2c1ccc1c2OCO1)OCO3
inactive

Can you share its Potency? I mean this compound: C[C@]12CC[C@H]3[C@@H](CCC4=C/C(=N/OCC(=O)O)CC[C@@]43C)[C@@H]1CC[C@@H]2O
inactive

Can you share its Potency? I mean this compound: C=C(C)[C@@H]1[C@H]2OC(=O)[C@H]1[C@]1(O)C[C@H]3O[C@]34C(=O)O[C@H]2[C@]14C
inactive

====

assay: qHTS for Inhibitors of the Functional Ribonucleoprotein Complex (vRNP) of Lassa (LASV) Arenavirus: Viability assay - alamar blue signal for LASV Primary Screen (AID 1347083); conditions: cell viability, alamar blue fluorescence (LASV minigenome counter-screen); series mostly up to 57.5 µM; also: nearly all actives have a fitted effect of over 80% in size
Records with an inconclusive call do not appear. Calls of active or inactive are those of the source. The call rests on the fitted dose curve; tested in HEK293 reporter line.
Select the matching outcome among y = active, n = inactive

Please review the entries below; each comes with its answer.
COc1ccc(-c2cc(=O)c3c(O)cc(OC4OC(COC5OC(C)C(O)C(O)C5O)C(O)C(O)C4O)cc3o2)cc1O (configuration not stated): n
COc1ccc(-c2coc3cc(O)ccc3c2=O)cc1: n
CC(=O)[C@]1(O)Cc2c(O)c3c(c(O)c2[C@@H](O[C@H]2C[C@H](N)[C@@H](O)[C@H](C)O2)C1)C(=O)c1ccccc1C3=O: y
COc1c(O)cc2c(c1O)[C@@H]1O[C@H](CO)[C@@H](O)[C@H](O)[C@H]1OC2=O: n
COc1cc2c(c(OC)c1CC=C(C)C)C[C@H](c1ccc(O)cc1O)CO2: n
N#C/C(=C\c1ccc(O)c(O)c1)C(=O)c1ccc(O)c(O)c1: n

Identify the outcome logged in this assay for the molecule shown: C[C@H](c1ccc(F)cc1CCCC(=O)O)N(c1cc(F)ccc1F)S(=O)(=O)c1ccc(Cl)cc1
n

Identify the outcome logged in this assay for the molecule shown: CCCCCC(C)O (configuration not stated)
n

Identify the outcome logged in this assay for the molecule shown: C[C@@H]1O[C@@H](OC2C(O)C(OCCc3ccc(O)c(O)c3)OC(CO)C2OC(=O)/C=C/c2ccc(O)c(O)c2)[C@H](O)[C@H](O)[C@H]1O (some centres not stated)
n

Identify the outcome logged in this assay for the molecule shown: C[C@H]1COc2c(N3CCN(C)CC3)c(F)cc3c(=O)c(C(=O)O)cn1c23
n

Identify the outcome logged in this assay for the molecule shown: CC(C)=CCC[C@](C)(O[C@@H]1O[C@H](CO)[C@@H](O)[C@H](O)[C@H]1O)[C@H]1CC[C@]2(C)[C@@H]1[C@H](O)C[C@@H]1[C@@]3(C)CC[C@H](O[C@@H]4O[C@H](CO)[C@@H](O)[C@H](O)[C@H]4O[C@@H]4O[C@H](CO)[C@@H](O)[C@H](O)[C@H]4O)C(C)(C)[C@@H]3[C@@H](O)C[C@]12C
n

Identify the outcome logged in this assay for the molecule shown: CC1=CC[C@H](CC=O)C1(C)C
n

Identify the outcome logged in this assay for the molecule shown: Cc1cnn(C)c1C(=O)Nc1cc(Nc2ccc3c(C=Cc4ccccn4)n[nH]c3c2)ccc1F
y

Identify the outcome logged in this assay for the molecule shown: C[C@H]1C[C@H]2[C@@H]3CCC4=CC(=O)C=C[C@]4(C)[C@@H]3C(=O)C[C@]2(C)[C@@]1(O)C(=O)CO
n

Identify the outcome logged in this assay for the molecule shown: CC1=C(/C=C/C(C)=C/C=C/C(C)=C/C=C/C=C(C)/C=C/C=C(C)/C=C/C2=C(C)C[C@@H](O)CC2(C)C)C(C)(C)C[C@H](O)C1
n

Identify the outcome logged in this assay for the molecule shown: CCCCCC(=O)CC
n

Identify the outcome logged in this assay for the molecule shown: COc1c2c(nc3occc13)C(CC=C(C)C)(OC)C(=O)C=C2 (configuration not stated)
n
